# assay summary: Apparent clearance in Sprague-Dawley rat at 75 umol/kg, po measured up to 1440 mins by LC/MS/MS analysis
# Assay type: ADME, organism-based
# run parameters: in vivo, read-out: CL(app) (converted)
measured attribute: CL/F (mL/min/kg)
Respond numerically; units are mL/min/kg and should not be typed.

Return reported CL/F; argument: "Cc1c(O)c(O)cc[n+]1[C@@H](CO)Cc1ccccc1.[Cl-]" 21.2

* * *

# assay summary: Apparent clearance in Sprague-Dawley rat at 300 umol/kg, po measured up to 1440 mins by LC/MS/MS analysis
# Assay type: ADME, organism-based
# run parameters: in vivo, read-out: CL(app) (converted)
measured attribute: CL/F (mL/min/kg)
The response must be a number in mL/min/kg with no trailing unit.

Query: CL/F; subject: "Cc1c(O)c(O)cc[n+]1[C@@H](CO)Cc1ccccc1.[Cl-]" 15.3
